These data points were gathered from PubChem BioAssay (NCI).

Test: NCI Yeast Anticancer Drug Screen. Data for the wt1 strain (AID 149)
Details: S. cerevisiae wt1 strain (SPY 50644) growth inhibition; at 33.0 µM; hits give high values
The panel holds about 79,000 compounds, 15% with a hit somewhere; the sample as a whole holds those more often.
Assign TRUE to entries whose growth inhibition meets or exceeds 30%; assign FALSE to the rest.

                                    compound  class_name
 0  COc1ccc(/C=C2\SC(=S)N(/C=C3\C(=O)N(c4ccccc4)N=C3C)C2=O)cc1OC        TRUE
 1                           CCCCCCCCCCCCCCN       FALSE
 2                N#Cc1nc(Nc2ccc(Cl)cc2)sc1N        TRUE
 3  Cc1ccc(NC(Nc2ccc(C)cc2C)=C(C(Cl)=C(Cl)Cl)[N+](=O)[O-])c(C)c1        TRUE
 4                CCc1c(Cl)c(C)c(Cl)c(O)c1Cl        TRUE
 5   COc1ccc(N=c2cc(-c3ccccc3)oc3ccccc23)cc1       FALSE
 6  O=C1C(/C=C/c2ccc(Cl)cc2)=NNC2N1N=C1NC(=O)C3(NN12)c1ccccc1-c1ccccc13 (configuration not stated)       FALSE
 7                   O=C(NO)c1coc2ccccc2c1=O       FALSE
 8                CCC(=O)Nc1ccc(N=NN(C)C)cc1        TRUE
 9           CC1(C2CC2)C(C#N)(C#N)C1(C#N)C#N       FALSE
10  CC(C)CCC[C@@H](C)[C@H]1CC[C@H]2[C@@H]3CC[C@H]4C[C@H](N)CC[C@]4(C)[C@H]3CC[C@]12C       FALSE
